Exercise: for every item that follows, state its recorded growth.
test system: A549/ATCC NSCLC; assay: NCI-60 one-dose screen, 48 h (100 = growth as untreated, 0 = no growth, -100 = all killed); conditions: 10 µM unless noted
Compounds without any hit were thinned out: in the full panel of roughly 83,000, 20% have a hit.
Numbers only, in %.

>  <STRUCTURE_STRING>
COc1ccc(-c2nnc(SCC(=O)Nc3ccc(C(=O)/C=C/c4ccc(Cl)cc4)cc3)o2)cc1OC

>  <ASSAY_VALUE>
90.7

$$$$
>  <STRUCTURE_STRING>
O=C(Nc1cccc([N+](=O)[O-])c1)Nc1cccc([N+](=O)[O-])c1

>  <ASSAY_VALUE>
60.5

$$$$

Next up:
Using the record for `O=C(Nc1ccccc1F)Nc1ccccc1Cl` , report its growth.
88.5

* * *

tested on: RXF 393 renal; assay: NCI-60 one-dose screen, 48 h; details: 10 µM unless noted
The panel holds about 83,000 compounds, 20% with a hit somewhere; the sample as a whole holds those more often. The source made the active and inactive calls. Rule for the calls: active = growth percent below 10; inactive = the rest.
The categories you may choose from are active, inactive

>  <MOLECULE>
COc1ccc(Cl)cc1NC(=O)c1cc2c(n1C)-c1nc(NC(=O)C(C)(C)C)sc1CC2

>  <MEASUREMENT_TARGET>
RXF 393 renal

>  <QUALITATIVE_LABEL>
inactive

$$$$

In this assay, the call recorded for `C#C[C@@]1(O)[C@@H](CO)O[C@@H](n2cc(C(F)(F)F)c3c(N)ncnc32)[C@@H]1O` was what?
active

Please answer likewise for `O=[N+]([O-])c1ccc(NS(=O)(=O)c2cc(Cl)ccc2Cl)c2ccccc12`
inactive

Subsequent entry: `NN=C(c1ccc(Cl)cc1)c1ccc(Cl)cc1`
inactive

Similarly, `CCOC(=O)n1cnc2c(Cl)ncnc21` ?
inactive

Please answer likewise for `CS(=O)(=O)Nc1cccc(-c2ccc3ncnc(Nc4ccc(F)c(Cl)c4)c3c2)c1`
inactive

Entry `O=C(CSc1nnc(-c2ccc(Cl)cc2)o1)Nc1ccc(C(=O)/C=C/c2ccccc2)cc1` please
inactive

Request: `O=C(Nc1ccc(-n2ccc3c(NC(=O)c4ccccc4)nccc32)cc1)Nc1ccc(Cl)c(Cl)c1`
active

Can you check `Nc1ncnc2c1ccn2-c1cccc(NC(=O)c2cccc(C(F)(F)F)c2)c1` next?
inactive

`Clc1ccc(OCc2nc(-c3ccccc3)n[nH]2)c(Cl)c1` ?
inactive

Likewise for `COc1ccc(-c2nnc(SCC(=O)N3CCN(c4cc5c(cc4F)c(=O)c(C(=O)O)cn5C4CC4)CC3)o2)cc1OC` ?
inactive

Okay, and `C=C1C(=O)O[C@H]2[C@H]1CC/C(COC(=O)c1ccc(Br)cc1)=C\CC[C@@]1(C)O[C@@H]21` ?
active

Same thing, different molecule: CC(CCC(=O)O)[C@H]1CCC2C3C(=O)C[C@@H]4CC(=O)CC[C@]4(C)C3CC(=O)[C@@]21C (stereo partly specified)
inactive

* * *

system: M14 melanoma; experiment: NCI-60 one-dose screen, 48 h; conditions: 10 µM unless noted
This is part of a sample that, as a whole, favours compounds with a hit. Of some 83,000 tested, about 20% had one in any assay. Calls of active or inactive are those of the source. How the source made its calls: active means growth percent below 10; inactive means the rest.
Please answer using one outcome listed in active, inactive

>  <COMPOUND>
CCN(CC)CC(=O)Nc1c(C)cccc1C

>  <MEASUREMENT_TARGET>
M14 melanoma

>  <QUALITATIVE_LABEL>
inactive

$$$$

Please examine the following record next.
# fetch the recorded call for `CCOC(=O)c1[nH]c(-c2ccc(Cl)cc2)cc1-c1cccnc1` here
inactive

* * *

system: OVCAR-8 ovarian; experiment: NCI-60 one-dose screen, 48 h (100 = growth as untreated, 0 = no growth, -100 = all killed); settings: 10 µM unless noted
Compounds without any hit were thinned out: in the full panel of roughly 83,000, 20% have a hit.
Sorting guide: entries reporting growth beneath 40% go in the Criterion met pile, the rest go in the Criterion not met pile.

See these solved cases before continuing.
>  <COMPOUND>
COc1ccccc1N1CCN(CC(O)COc2c(Br)c(Br)c(Br)c3c2OC(C)(C)C3)CC1 (stereo unspecified)

>  <MEASUREMENT_TARGET>
OVCAR-8 ovarian

>  <QUALITATIVE_LABEL>
Criterion not met

$$$$
>  <COMPOUND>
COC(=O)Nc1nc2ccc(Sc3ccccc3)cc2[nH]1

>  <MEASUREMENT_TARGET>
OVCAR-8 ovarian

>  <QUALITATIVE_LABEL>
Criterion met

$$$$
>  <COMPOUND>
Nc1c(C(=O)O)[nH]c(=O)[nH]c1=O

>  <MEASUREMENT_TARGET>
OVCAR-8 ovarian

>  <QUALITATIVE_LABEL>
Criterion not met

$$$$
>  <COMPOUND>
C=CCn1c(SCC(=O)Nc2ccc(C(=O)/C=C/c3cc(OC)c(OC)c(OC)c3)cc2)nnc1-c1ccc(OC)cc1

>  <MEASUREMENT_TARGET>
OVCAR-8 ovarian

>  <QUALITATIVE_LABEL>
Criterion met

$$$$
>  <COMPOUND>
O=C(NCCNc1nccc(-c2c(-c3cccc(O)c3)nc3sccn23)n1)c1ccccc1O

>  <MEASUREMENT_TARGET>
OVCAR-8 ovarian

>  <QUALITATIVE_LABEL>
Criterion not met

$$$$
>  <COMPOUND>
CCC1S/C(=N\N=C(/C)c2ccco2)N(c2ccccc2)C1=O (stereo unspecified)

>  <MEASUREMENT_TARGET>
OVCAR-8 ovarian

>  <QUALITATIVE_LABEL>
Criterion not met

$$$$
>  <COMPOUND>
CCNc1cc(S(=O)(=O)O)ccc1C

>  <MEASUREMENT_TARGET>
OVCAR-8 ovarian

>  <QUALITATIVE_LABEL>
Criterion not met

$$$$
>  <COMPOUND>
CCn1c(SCC(=O)c2ccc(Br)cc2)nnc1-c1cc2c([nH]c3ccccc32)c(-c2cccc(O)c2)n1

>  <MEASUREMENT_TARGET>
OVCAR-8 ovarian

>  <QUALITATIVE_LABEL>
Criterion not met

$$$$
>  <COMPOUND>
CC1(C)N=C(N)N=C(N)N1c1ccc(OCC(=O)Nc2ccccc2)c(Cl)c1

>  <MEASUREMENT_TARGET>
OVCAR-8 ovarian

>  <QUALITATIVE_LABEL>
Criterion met

$$$$
>  <COMPOUND>
Clc1ccc2c(c1)nnn1c3ncccc3c(Br)c21

>  <MEASUREMENT_TARGET>
OVCAR-8 ovarian

>  <QUALITATIVE_LABEL>
Criterion not met

$$$$

Here's an entry: `Cc1nccc2c3ccc(OCc4cn(Cc5ccc(Br)cc5)nn4)cc3n(CCCc3ccccc3)c12` . Is its growth below 40%?
Criterion not met

What do you get for `Cc1ccc2nc(-c3ccc(-n4on4-c4ccc(/C=C/c5ccc(-n6on6-c6ccc(-c7nc8ccc(C)cc8s7)cc6)cc5S(=O)(=O)O)c(S(=O)(=O)O)c4)cc3)sc2c1` ?
Criterion not met

Would you mind doing `O=c1[nH]ccc2nc(N3CCC(O)CC3)nc(Nc3cccc(C(F)(F)F)c3)c12` as well?
Criterion not met

Try `CCCCCCCCCCCCCCCC(=O)NS(=O)(=O)OC[C@H]1O[C@@H](n2cnc3c(N)ncnc32)[C@H](O)[C@@H]1O` next.
Criterion met

Now try CC1(C)Cc2c(Br)c(Br)c(Br)c(OCC(O)CN3CCN(c4ccccn4)CC3)c2O1 (stereo unspecified) .
Criterion not met

Queued: `O=[N+]([O-])c1cccc2cc(S(=O)(=O)O)ccc12`
Criterion not met

Also `O=C(NCCNc1nccc(-c2c(-c3cccc(O)c3)nc3sccn23)n1)Nc1cc(C(F)(F)F)cc(C(F)(F)F)c1` ?
Criterion not met

Same question, CCOC(=O)C1=C(N)Oc2cc(OC)ccc2C1c1ccc(F)c(F)c1 (stereo unspecified) this time
Criterion met

Another compound: `C=C1C(=O)O[C@H]2[C@H]1CC/C(COC(=O)c1ccc3ccccc3c1)=C\CC[C@@]1(C)O[C@@H]21`
Criterion met

Then `CCOC(=O)NNc1nncc2ccccc12` ?
Criterion not met

Then this compound: `CCCCN(CCCC)c1ccc(C(=N)c2ccc(N(C)C)cc2)cc1`
Criterion met

Now this one: `CC1(C)CC(=O)C2=C(C1)OC1=C(C(=O)CC(C)(C)C1)C2c1ccc(OCc2cn(-c3ccc(F)cc3F)nn2)cc1`
Criterion not met

* * *

test system: HCT-116 colon; experiment: NCI-60 one-dose screen, 48 h (100 = growth as untreated, 0 = no growth, -100 = all killed); details: 10 µM unless noted
The panel holds about 83,000 compounds, 20% with a hit somewhere; the sample as a whole holds those more often.
MEASURE_NAME: growth (%)
Answers are plain numbers, in %.

Solved entries (count: 6):
>  <COMPOUND>
COc1ccc(C2=NN(C(=O)COc3ccc(Cl)cc3)C(O)(c3cc(F)c(Cl)cc3Cl)C2)cc1OC (stereo unspecified)

>  <MEASURE_NAME>
growth

>  <ASSAY_VALUE>
-69.1

$$$$
>  <COMPOUND>
CCCCn1c(-c2cccc(OC)c2)nc2cc(OC)c(OC)cc2c1=O

>  <MEASURE_NAME>
growth

>  <ASSAY_VALUE>
89.3

$$$$
>  <COMPOUND>
CSc1nc(N)nc2c1ncn2C

>  <MEASURE_NAME>
growth

>  <ASSAY_VALUE>
92.1

$$$$
>  <COMPOUND>
O=C(Nc1ccc(-n2ccc3c(NC(=O)c4ccccc4)ncnc32)cc1)Nc1ccc(Cl)c(C(F)(F)F)c1

>  <MEASURE_NAME>
growth

>  <ASSAY_VALUE>
-77.6

$$$$
>  <COMPOUND>
N#CC(C#N)=C(C#N)c1c[nH]c2ccccc12

>  <MEASURE_NAME>
growth

>  <ASSAY_VALUE>
85.4

$$$$
>  <COMPOUND>
CCOC(=O)CSc1nnc(-c2cc3c([nH]c4ccccc43)c(-c3cccc(O)c3)n2)n1-c1ccc(C)cc1

>  <MEASURE_NAME>
growth

>  <ASSAY_VALUE>
50

$$$$

// for each compound in input: emit growth
1. Nc1ncnc2c1c(C(F)(F)F)cn2[C@@H]1O[C@H](CO)[C@@H](O)[C@H]1O
2. O=C(Nc1ccc(-n2ccc3c(NC(=O)c4ccccc4)nccc32)cc1)Nc1cccc(C(F)(F)F)c1
3. CN1CCN(CC(=O)N(C)c2ccc(N=C(c3ccccc3)c3c(O)[nH]c4ccc(C#N)cc34)cc2)CC1
4. CC(C)(C)C(=O)/C=c1/[nH]c(=O)/c(=C/c2ccccc2O)s1
5. Cc1ccc(/C=C2/C(=O)Nc3cc(Cl)c(-c4csc(N)n4)cc32)cc1

1: 8.38; 2: 4.34; 3: 9.41; 4: 21.2; 5: 66
